Source of measurements: PubChem BioAssay (NCI)

TGI overview
# System: SK-MEL-5 melanoma
# Assay Procedure: NCI tumour cell line growth inhibition, 48 h

Below, each entry is followed by its recorded TGI result.
[
  {
    "Compound": "O=C1C=C[C@H](O)[C@@]2(CO)O[C@@H]12",
    "Target Or System": "SK-MEL-5 melanoma",
    "Recorded Measurement": "29.7 µM"
  },
  {
    "Compound": "Cc1nnc2n(c1=O)CCCN2C",
    "Target Or System": "SK-MEL-5 melanoma",
    "Recorded Measurement": "> 100 µM"
  }
]

Task: Given the entry COC(=O)CCC(NC(=S)N/N=C/c1cccs1)C(=O)OC (configuration not stated) , report its measured TGI.
Result: > 100 µM

Task: Given the entry Cc1ccc2c(-c3ccnc(Nc4ccc5c(c4)OCCO5)n3)c(-c3ccc(C(F)(F)F)cc3)nn2n1 , report its measured TGI.
Result: 7.42 µM

Task: Given the entry Cc1nc2ccccc2nc1CC(=O)C(=O)Nc1ccc(Cl)cc1Cl , report its measured TGI.
Result: > 100 µM

Task: Given the entry CC1CC(N2CCOCC2)=Nc2ccccc2N1C (configuration not stated) , report its measured TGI.
Result: > 100 µM

Task: Given the entry CCCCCCCC(=O)OCC(COC(=O)C(C)(C)C)OC(=O)Cc1ccccc1 (configuration not stated) , report its measured TGI.
Result: > 100 µM

Task: Given the entry c1ccc(-c2[nH]ncc2-c2ccnc(-c3ccc(OCCn4ccnc4)cc3)c2)nc1 , report its measured TGI.
Result: > 25 µM

Task: Given the entry Cc1ccc2c(c1)CN1c3ccc(C)cc3CN2C1c1ccccc1O , report its measured TGI.
Result: 30.5 µM

Task: Given the entry O=C1NC(=N[C@@H](CO)c2ccccc2)S/C1=C\c1ccc2ncccc2c1 , report its measured TGI.
Result: > 25 µM

Task: Given the entry O=C1CC(c2ccccc2)Oc2ccccc21 (configuration not stated) , report its measured TGI.
Result: 65.8 µM

Task: Given the entry Clc1cccc(-c2sc(-c3cccs3)cc2Cc2cccs2)c1 , report its measured TGI.
Result: > 10 µM

----------
# Test system: K-562 leukemia
# Assay Procedure: NCI tumour cell line growth inhibition, 48 h
TGI overview

[
  {
    "Compound": "CC1CC(N2CCOCC2)=Nc2ccccc2N1C (centres undefined)",
    "Target Or System": "K-562 leukemia",
    "TGI": "> 100 µM"
  },
  {
    "Compound": "Cc1nc2ccc(Cl)cc2c(-n2ccnc2)c1CCn1ccnc1",
    "Target Or System": "K-562 leukemia",
    "TGI": "89.3 µM"
  },
  {
    "Compound": "CC(=O)O[C@H]1C(=O)[C@@]2(C)C([C@H](OC(=O)c3ccccc3)[C@]3(O)C[C@H](OC(=O)[C@H](O)[C@@H](NC(=O)c4ccccc4)c4ccccc4)C(C)=C1C3(C)C)[C@]1(OC(C)=O)CO[C@@H]1C[C@@H]2O (some centres undefined)",
    "Target Or System": "K-562 leukemia",
    "TGI": "> 50 µM"
  },
  {
    "Compound": "COc1ccc2c(c1)C(=O)c1c-2c(Nc2ccccc2OC)nc2ccccc12",
    "Target Or System": "K-562 leukemia",
    "TGI": "> 100 µM"
  },
  {
    "Compound": "O=c1[nH]c(NCc2ccncc2)nc2nc[nH]c12",
    "Target Or System": "K-562 leukemia",
    "TGI": "> 100 µM"
  }
]

Attention now turns to another entry.
Task: Given the entry CN(CCN1CCCC1)C1CCc2cc(Cl)c(Cl)cc2C1 (centres undefined) , report its measured TGI.
Result: > 100 µM
